Reference source for all entries: ChEMBL document CHEMBL1154645

# Assay Procedure: Inhibition of Schistosoma mansoni asparaginyl endopeptidase
# Measurement Parameters: read-out: IC50
IC50 listing for selected molecules.
Measurement Label: IC50 (nM)

[[record]]
molecule = "C[C@H](NC(=O)N1CCCCC1)C(=O)NN(CC(N)=O)C(=O)/C=C/C(=O)N1CCc2ccccc2C1"
obs_value = 600

[[record]]
molecule = "CC(NC(=O)N1CCNCC1)C(=O)N[C@@H](C)C(=O)NN(CC(N)=O)C(=O)[C@H]1O[C@@H]1C(=O)N(Cc1ccccc1)Cc1ccccc1 (single isomer, unassigned)"
obs_value = 150

[[record]]
molecule = "CC(NC(=O)N1CCCCC1)C(=O)N[C@@H](C)C(=O)NN(CC(N)=O)C(=O)[C@H]1O[C@@H]1C(=O)N(Cc1ccccc1)Cc1ccccc1 (single isomer, unassigned)"
obs_value = 72

[[record]]
molecule = "CCOC(=O)/C=C/C(=O)N(CC(N)=O)NC(=O)[C@H](C)NC(=O)[C@@H](C)NC(=O)N1CCOCC1"
obs_value = 101

